Below, each entry is listed alongside its reported pIC50.
- Test system: Namalwa (Burkitt's lymphoma)
- assayName: In vitro cytotoxicity assay (WST-8), Namalwa cells
- statedConditions: read-out: IC50 values for free cytotoxic compounds, Namalwa
- Experimental: The following cell lines were used for the studies: KB (cervical carcinoma, ATCC), NCI-H2110 (Non Small Cell Lung Carcinoma, ATCC), Namalwa (Burkitt's lymphoma, ATCC), and T47D (breast epithelial cancer, ATCC). The cells were maintained and plated for the cytotox experiments in media recommended by the manufacturers. Cells were plated in the 96-well flat bottom plates at a seeding density of 1,000 cells per well (KB, Namalwa) or 2,000 cell per well (NCI H2110, T47D). […]
pIC50: −log10 of the molar value.
measuredEndpoint: pIC50

> print(dat)
                                     smiles  measuredendpoint  measuredresult
1  COc1cc2c(cc1OCCCCCOc1cc3c(cc1OC)C(=O)N1Cc4ccccc4C[C@H]1CN3)N=C[C@@H]1Cc3ccccc3N1C2=O             pIC50           11.00
2  COc1cc2c(cc1OCCCCCOc1cc3c(cc1OC)C(=O)N1c4ccccc4C[C@H]1CN3)N=C[C@@H]1Cc3ccccc3N1C2=O             pIC50           11.52
3  COc1cc2c(cc1OCCCCCOc1cc3c(cc1OC)C(=O)N1c4ccccc4C[C@H]1CN3)N=C[C@@H]1Cc3ccccc3CN1C2=O             pIC50           12.00
4  COc1cc2c(cc1OCc1cccc(COc3cc4c(cc3OC)C(=O)N3c5ccccc5C[C@H]3CN4)c1)N=C[C@@H]1Cc3ccccc3N1C2=O             pIC50           12.00
5  COC(=O)c1cc(COc2cc3c(cc2OC)C(=O)N2c4ccccc4C[C@H]2C=N3)cc(COc2cc3c(cc2OC)C(=O)N2c4ccccc4C[C@H]2CN3)c1             pIC50           12.00
6  COCCOCCOCCNc1cc(COc2cc3c(cc2OC)C(=O)N2c4ccccc4C[C@H]2C=N3)cc(COc2cc3c(cc2OC)C(=O)N2c4ccccc4C[C@H]2CN3)c1             pIC50           11.70
7  COc1cc2c(cc1OCCCOc1cc3c(cc1OC)C(=O)N1c4ccccc4C[C@H]1CN3)N=C[C@@H]1Cc3ccccc3N1C2=O             pIC50           10.52
8  COc1cc2c(cc1OCc1cccc(COc3cc4c(cc3OC)C(=O)N3c5ccccc5C[C@H]3CN4)n1)N=C[C@@H]1Cc3ccccc3N1C2=O             pIC50           12.00
